- system-tested: RGS6:Gαo protein:protein interaction (ppi) (Homo sapiens)
- Sequence (P49758 336-441 limits assumed): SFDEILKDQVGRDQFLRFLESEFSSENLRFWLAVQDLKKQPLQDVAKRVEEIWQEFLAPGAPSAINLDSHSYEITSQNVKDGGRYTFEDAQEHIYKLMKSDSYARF
- procedure-summary: Alpha Screen dose response, RGS6:Gαo protein:protein interaction
- test-context: Alpha Screen dose response; truncated RGS6 construct; read-out: IC50 for inhibition of RGS6:Gαo ppi
experimental-endpoint: pIC50
The quantity pIC50 is defined as the negative base-10 logarithm of the molar concentration.

The examples below pair each entry with its known result.
- molecule: "O=C1C=C2C[C@@]3(O)COc4cc(O)ccc4C3=C2C=C1O"
  system-tested: "RGS6:Gαo protein:protein interaction (ppi) (Homo sapiens)"
  result-value: 4.31
- molecule: "O=c1c(-c2cc(O)c(O)c(O)c2)coc2cc(O)c(O)c(O)c12"
  system-tested: "RGS6:Gαo protein:protein interaction (ppi) (Homo sapiens)"
  result-value: 4.38

Record request: pIC50 value, item Oc1ccc2c(c1)OCC1(O)Cc3cc(O)c(O)cc3C21 (stereo not drawn) 4.77
